I'd be grateful if you could share measured pKi for these entries.
measuredOn: Dimer of Gag-Pol polyprotein [489-587] (Human immunodeficiency virus 1, UniProt P12497)
Construct: 489-587
methodDescription: Protease Inhibition Assay
measurementConditions: pH 6; 37 °C
Note on pKi: it is the negative log10 of concentration, concentration in mol/L.

GET pKi | system: Dimer of Gag-Pol polyprotein [489-587] (Human immunodeficiency virus 1, UniProt P12497) | item: CCc1c(O)cccc1C(=O)N[C@@H](Cc1ccccc1)[C@H](O)C(=O)N1CSC(C)(C)[C@H]1C(=O)NCc1ccccc1C
9.80

GET pKi | system: Dimer of Gag-Pol polyprotein [489-587] (Human immunodeficiency virus 1, UniProt P12497) | item: CSC[C@H](NC(=O)COc1cccc2cnccc12)C(=O)N[C@@H](Cc1ccccc1)[C@H](O)C(=O)N1CSC[C@H]1C(=O)NC(C)(C)C
9.13

GET pKi | system: Dimer of Gag-Pol polyprotein [489-587] (Human immunodeficiency virus 1, UniProt P12497) | item: CSC[C@H](NC(=O)COc1cccc2cnccc12)C(=O)N[C@@H](Cc1ccccc1)[C@H](O)C(=O)N1CSC(C)(C)[C@H]1C(=O)NC(C)(C)C
10.06
